target: Luciferin 4-monooxygenase (Photinus pyralis); assay: inhibition of purified Photinus pyralis luciferase – biochemical, luminescence, dose response (AID 1891)
Sequence (P08659 whole entry): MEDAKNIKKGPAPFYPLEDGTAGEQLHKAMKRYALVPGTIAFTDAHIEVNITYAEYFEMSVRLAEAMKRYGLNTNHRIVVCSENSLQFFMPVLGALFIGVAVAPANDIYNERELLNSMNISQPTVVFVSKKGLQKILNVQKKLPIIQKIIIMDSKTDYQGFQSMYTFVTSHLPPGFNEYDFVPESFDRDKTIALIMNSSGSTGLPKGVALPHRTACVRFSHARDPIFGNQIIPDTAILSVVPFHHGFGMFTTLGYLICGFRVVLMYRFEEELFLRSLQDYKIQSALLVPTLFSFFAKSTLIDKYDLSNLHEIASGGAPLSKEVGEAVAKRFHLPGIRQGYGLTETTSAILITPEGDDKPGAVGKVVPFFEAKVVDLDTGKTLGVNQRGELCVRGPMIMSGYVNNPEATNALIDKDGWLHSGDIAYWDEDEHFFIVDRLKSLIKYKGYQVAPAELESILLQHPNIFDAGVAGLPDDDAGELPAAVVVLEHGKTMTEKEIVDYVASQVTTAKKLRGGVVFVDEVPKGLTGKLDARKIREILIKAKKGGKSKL
Calls of active or inactive are those of the source.
Catalogue of EC50 readings, one per entry.

{"compound": "O=C(Cc1ccc(-n2c(=O)c3ccccc3n(Cc3ccc(F)cc3)c2=O)cc1)NCC1CCCO1 (configuration not stated)", "EC50": "> 112 µM (not active)"}
{"compound": "Cc1cc(C)cc(NC(=O)c2cc(S(=O)(=O)N3CCCC3)cn2C)c1", "EC50": "> 112 µM (not active)"}
{"compound": "Nc1cc(-c2ccc(Br)cc2)nn1Cc1ccccc1", "EC50": "> 112 µM (not active)"}
{"compound": "CCCc1ccc(C(=O)O/N=C(\\N)c2ccccn2)cc1", "EC50": "0.407 µM (active)"}
{"compound": "CN1CCN(/C=C2\\SC(=S)NC2=O)CC1", "EC50": "> 112 µM (not active)"}
{"compound": "Cc1nc2cc(NC(=O)Nc3ccccc3Cl)ccc2n1C", "EC50": "5.05 µM (active)"}
{"compound": "CCC(=O)/N=c1\\sc2cc(F)cc(F)c2n1C", "EC50": "> 112 µM (not active)"}

----------
target: Nucleotide-binding oligomerization domain-containing protein 1 (Homo sapiens, UniProt Q9Y239); assay: blockers of NOD1 pathway activity – revised, SAR follow-up (AID 2333); type: functional
Sequence (Q9Y239 whole entry, the tested form may be a part): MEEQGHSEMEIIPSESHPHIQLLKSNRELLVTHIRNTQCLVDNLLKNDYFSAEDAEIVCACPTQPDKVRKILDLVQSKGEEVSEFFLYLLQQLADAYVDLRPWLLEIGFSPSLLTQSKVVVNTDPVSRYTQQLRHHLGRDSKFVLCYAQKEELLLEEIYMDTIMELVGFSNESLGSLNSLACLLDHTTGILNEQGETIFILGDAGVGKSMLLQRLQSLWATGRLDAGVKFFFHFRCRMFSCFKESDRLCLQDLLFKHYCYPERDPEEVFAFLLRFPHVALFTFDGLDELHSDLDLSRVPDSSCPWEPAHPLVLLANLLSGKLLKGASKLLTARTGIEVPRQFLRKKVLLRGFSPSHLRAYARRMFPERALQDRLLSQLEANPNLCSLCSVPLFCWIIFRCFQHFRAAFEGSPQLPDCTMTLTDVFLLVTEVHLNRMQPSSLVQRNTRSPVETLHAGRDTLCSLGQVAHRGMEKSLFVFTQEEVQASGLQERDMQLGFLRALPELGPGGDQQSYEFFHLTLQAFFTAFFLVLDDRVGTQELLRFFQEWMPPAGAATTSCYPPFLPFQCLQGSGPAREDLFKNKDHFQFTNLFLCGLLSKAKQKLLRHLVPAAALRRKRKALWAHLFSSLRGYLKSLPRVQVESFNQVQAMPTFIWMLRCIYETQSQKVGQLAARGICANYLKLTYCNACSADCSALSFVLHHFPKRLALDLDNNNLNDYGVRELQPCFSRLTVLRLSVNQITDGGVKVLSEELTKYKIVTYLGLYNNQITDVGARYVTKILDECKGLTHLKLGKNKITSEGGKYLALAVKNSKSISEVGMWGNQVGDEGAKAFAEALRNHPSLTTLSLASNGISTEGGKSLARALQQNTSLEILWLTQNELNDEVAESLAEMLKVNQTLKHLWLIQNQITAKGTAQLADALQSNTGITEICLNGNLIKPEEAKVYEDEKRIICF
Active and inactive are the calls of the source.
Outcomes: yes = active, no = inactive

{"structure": "O=C(c1ccc(S(=O)(=O)c2ccccc2Cl)c([N+](=O)[O-])c1)N1CCN(Cc2ccccc2)CC1", "cat": "yes"}
{"structure": "COc1ccc(-c2cc(=O)oc3cc(OCC(=O)Nc4ccc(CCO)cc4)ccc23)cc1", "cat": "yes"}
{"structure": "O=C(Nc1sc2c(c1C(=O)O)CCCC2)C(=O)N1CCOCC1", "cat": "no"}
{"structure": "Cc1cccc(Nc2nc(N)nc(CCl)n2)c1C", "cat": "yes"}

----------
Catalogue of AC50 readings, one per entry.
biological target: Cytochrome P450 2C19 (Homo sapiens, UniProt P33261); assay: Cytochrome panel assay with activity outcomes. Panel member name: p450-cyp2c19 Compounds with AC50 equal or less than 10 uM are considered active; format: functional; conditions: read-out: AC50
Sequence (P33261 whole entry): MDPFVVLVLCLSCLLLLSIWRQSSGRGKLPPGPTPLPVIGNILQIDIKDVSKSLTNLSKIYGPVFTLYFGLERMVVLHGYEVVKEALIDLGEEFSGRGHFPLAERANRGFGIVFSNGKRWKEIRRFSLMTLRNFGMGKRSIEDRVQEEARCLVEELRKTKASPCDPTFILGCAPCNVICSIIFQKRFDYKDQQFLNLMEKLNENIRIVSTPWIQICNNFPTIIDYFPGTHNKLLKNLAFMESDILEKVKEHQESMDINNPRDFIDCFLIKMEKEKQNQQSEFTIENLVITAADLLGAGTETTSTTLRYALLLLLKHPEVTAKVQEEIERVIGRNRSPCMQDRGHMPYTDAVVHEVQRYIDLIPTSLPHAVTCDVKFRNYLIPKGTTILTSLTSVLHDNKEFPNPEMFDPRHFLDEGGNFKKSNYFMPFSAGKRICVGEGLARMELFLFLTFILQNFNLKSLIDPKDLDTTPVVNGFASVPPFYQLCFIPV
propertyName: AC50

{"compound": "O=C(N/N=C/c1c[nH]c2ccccc12)c1cc(-c2ccc(-c3ccccc3)cc2)[nH]n1", "recordedResult": "6.31 µM (inconclusive)"}
{"compound": "CC(C)(C)C(=O)NC(c1ccc(Cl)cc1)[C@]1(C)C[C@H]1C1CCCCC1 (stereo not given in full)", "recordedResult": "7.94 µM (inconclusive)"}
{"compound": "Cc1ccc(C)c(NC(=O)c2nc[nH]n2)c1", "recordedResult": "39.8 µM (inconclusive)"}
{"compound": "COc1ccc(C2=NOC(C(=O)Nc3ccc(C(C)=O)cc3)C2)cc1OC (stereo not given)", "recordedResult": "22.4 µM (inconclusive)"}
{"compound": "O=C(Nc1nc2ccccc2n1CCN1CCCCC1)C1CCCCC1", "recordedResult": "28.2 µM (inconclusive)"}

----------
molecular target: Protein RecA (Mycobacterium tuberculosis, UniProt P9WHJ3); experiment: Fluorescence Cell-Free Homogeneous Dose Retest to Identify Inhibitors of RecA-Intein Splicing Activity. [Related pubchem assays (depositor defined):AID2097, AID2223, AID489010, AID492950]; format: functional
Active and inactive are the calls of the source.
Catalogue of EC50 readings, one per entry.
propertyName: EC50

{"compound": "Cc1ccc(Sc2ccc(NC(=O)CCl)cc2)cc1C", "recordedResult": "0.716 µM (active)"}
{"compound": "CCOC(=O)c1cc2cc3ccccc3cc2[nH]1", "recordedResult": "> 380 µM (inactive)"}
{"compound": "CC(C)c1n[nH]c2c1C(c1cccs1)C(C#N)=C(N)O2 (stereo unspecified)", "recordedResult": "4.29 µM (active)"}
{"compound": "CCOC(=O)CC1=NN(c2ccccc2)C(=O)C1", "recordedResult": "10.1 µM (active)"}
{"compound": "COc1cc(C2NC(=O)C(C#N)=C(Nc3cccc(C)c3)S2)ccc1O (stereo unspecified)", "recordedResult": "20 µM (active)"}
{"compound": "O=C(CCl)Nc1cccc(Oc2ccccc2)c1", "recordedResult": "4.28 µM (active)"}

----------
Reported values: AC50 for Cytochrome P450 3A4 (Homo sapiens), one per item.

{"structure": "N=C(N)SCc1cccc2c(=O)cc(-c3ccccc3)oc12", "AC50": "3.16 µM (inconclusive)"}
{"structure": "CCc1ccc(C(=O)CN(C#N)c2nc(C)cc(C)n2)cc1", "AC50": "25.1 µM (inconclusive)"}
{"structure": "O=C1CSc2ccc(C(=O)NCCC3=CCCCC3)cc2N1", "AC50": "12.6 µM (inconclusive)"}

----------
assay: Luminescence Cell-Based Dose Response HTS to Identify Inhibitors of 5'UTR Stem-Loop Driven Prion Protein mRNA Translation in H4 Neuroglioblastoma Cells. [Related pubchem assays: 1827 (Project Summary), 1813 (Primary HTS)]; format: functional
Calls of active or inactive are those of the source.

{"compound": "CCCOc1ccc(C(=O)NNC(=S)NC(C)=O)cc1", "EC50": "14.2 µM (active)"}
{"compound": "COc1ccc(C2(C)NC(=O)N(CC(=O)Nc3ccc4c(c3)OCO4)C2=O)cc1OC (stereo not drawn)", "EC50": "> 120 µM (not active)"}
{"compound": "COc1ccc(-c2nnc(NC(=O)c3ccc4c(c3)OCCO4)o2)cc1", "EC50": "> 120 µM (not active)"}

----------
Catalogue of EC50 readings, one per entry.
assay: luciferase reporter signal suppression in cells – H4 neuroglioma cells, luminescence, dose response (AID 1990); assay type: functional, cell-based
Active and inactive are the calls of the source.
propertyName: EC50

{"compound": "COC(=O)C1=C(N)Oc2cc(N(C)C)ccc2C1c1ccccc1OC (stereo unspecified)", "recordedResult": "11.3 µM (active)"}
{"compound": "Cc1cccc2sc(NC(=O)C3CSC4(C)CCC(=O)N34)nc12 (stereo unspecified)", "recordedResult": "> 120 µM (not active)"}
{"compound": "Cc1cc(C(=O)COC(=O)c2ccccc2O)c(C)n1Cc1cccs1", "recordedResult": "< 0.1 µM (active)"}
{"compound": "Cc1ccc(F)cc1NC(=O)CSc1nc(Nc2ccccc2)nc(N2CCOCC2)n1", "recordedResult": "14.8 µM (active)"}
{"compound": "CCOC(=O)c1c(NC(=O)C2C3C=CC(C3)C2C(=O)O)sc2c1CC(C)CC2 (stereo unspecified)", "recordedResult": "> 120 µM (not active)"}
{"compound": "N=C(NCCCCCCNC(=N)NC(=N)Nc1ccc(Cl)cc1)NC(=N)Nc1ccc(Cl)cc1", "recordedResult": "8.64 µM (active)"}

----------
Molecular target: UniProtKB Q9H0H5
Sequence (Q9H0H5 whole entry): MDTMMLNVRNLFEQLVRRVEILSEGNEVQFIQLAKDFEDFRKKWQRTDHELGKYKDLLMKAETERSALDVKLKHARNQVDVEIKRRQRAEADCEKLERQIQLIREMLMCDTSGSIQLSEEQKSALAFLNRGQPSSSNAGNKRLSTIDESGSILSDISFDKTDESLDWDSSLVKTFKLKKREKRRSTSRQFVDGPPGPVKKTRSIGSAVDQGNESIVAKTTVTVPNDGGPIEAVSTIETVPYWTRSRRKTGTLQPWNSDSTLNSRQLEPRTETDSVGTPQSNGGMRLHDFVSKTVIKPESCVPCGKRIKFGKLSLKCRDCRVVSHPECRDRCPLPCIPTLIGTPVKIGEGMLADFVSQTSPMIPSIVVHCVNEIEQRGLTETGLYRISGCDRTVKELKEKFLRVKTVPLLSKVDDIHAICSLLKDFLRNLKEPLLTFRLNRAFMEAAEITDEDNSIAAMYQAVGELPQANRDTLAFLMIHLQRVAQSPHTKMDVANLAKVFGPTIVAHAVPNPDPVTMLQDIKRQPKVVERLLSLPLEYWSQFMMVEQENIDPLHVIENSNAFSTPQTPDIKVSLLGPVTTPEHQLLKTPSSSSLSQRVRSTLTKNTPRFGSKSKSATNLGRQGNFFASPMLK
Assay: blockers of MgcRacGAP-driven Rac1 GTP hydrolysis – biochemical, ADP Hunter fluorescence, primary and confirmatory, confirmation (AID 624330)
Type: functional
Active and inactive are the calls of the source.

{"molecule": "COc1cc(-c2ncc3ccccn23)cc(OC)c1OC", "IC50": "123 µM (active)"}
{"molecule": "CCOC(=O)C1CCCN(C2=NC(=O)/C(=C/c3ccc(O)c(OC)c3)S2)C1 (stereo unspecified)", "IC50": "19.6 µM (active)"}
{"molecule": "Cc1ccc(Nc2nnc(S)s2)cc1F", "IC50": "54.5 µM (active)"}
{"molecule": "[H]/N=C(\\N/C(=N/[H])NCCCCCCNC(=N)NC(=N)Nc1ccc(Cl)cc1)Nc1ccc(Cl)cc1", "IC50": "42.3 µM (active)"}
{"molecule": "COc1ccccc1COCC(O)CNCC1(N2CCCCC2)CCCCC1 (stereo unspecified)", "IC50": "121 µM (active)"}
{"molecule": "O=C(C[n+]1ccccc1)NN=Cc1ccc(O)cc1", "IC50": "75 µM (active)"}

Where these numbers come from: ChEMBL document CHEMBL1201862
